Tested on: HT-1080;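 also: viability read as CCK-8 absorbance at 450 nm in cells co-exposed to the GPX4 inhibitor RSL3, relative to a 0.01% DMSO vehicle control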
Assay: relative cell viability with RSL3 co-treatment (fraction of control); higher = stronger protection from RSL3-induced ferroptosis (higher viability)
Details: 10 µM
Assay metric: relative cell viability
Would you mind answering with just the numeric figure?

Data request: Recorded relative cell viability for "Cc1ccc(-n2nc(C(C)(C)C)cc2NC(=O)Nc2ccc(OCCN3CCOCC3)c3ccccc23)cc1" , please?
Data returned: 0.57

Data request: Recorded relative cell viability for CO[C@H]1C[C@@H]2CC[C@@H](C)[C@@](O)(O2)C(=O)C(=O)N2CCCC[C@H]2C(=O)O[C@H]([C@H](C)C[C@@H]2CC[C@@H](O)[C@H](OC)C2)CC(=O)[C@H](C)/C=C(\C)[C@@H](O)[C@@H](OC)C(=O)[C@H](C)C[C@H](C)/C=C/C=C/C=C/1C [Rapamycin (Sirolimus)] , please?
Data returned: 0.387

Data request: Recorded relative cell viability for "CCNc1nc(Nc2cc(F)c(C(=O)N3CCOCC3)cc2OC)ncc1C(F)(F)F" , please?
Data returned: 0.69

Data request: Recorded relative cell viability for "CC(C)(CCCCCC(O)CCCCCC(C)(C)C(=O)O)C(=O)O" , please?
Data returned: 0.843

Data request: Recorded relative cell viability for "COc1ccc2c(Oc3ccc(NC(=O)c4c(C)n(CC(C)(C)O)n(-c5ccccc5)c4=O)nc3)ccnc2c1" , please?
Data returned: 0.76

Data request: Recorded relative cell viability for "NC(=O)c1ncn([C@@H]2O[C@H](CO)[C@@H](O)[C@H]2O)c1N" , please?
Data returned: 1.03

Data request: Recorded relative cell viability for "CCCS(=O)(=O)Nc1ccc(F)c(C(=O)c2c[nH]c3ncc(-c4ccc(Cl)cc4)cc23)c1F" , please?
Data returned: 0.323

Data request: Recorded relative cell viability for "CNCc1ccc(-c2cc(-c3nc(-c4ccc(S(=O)(=O)C(C)C)cc4)cnc3N)on2)cc1" , please?
Data returned: 0.47

Data request: Recorded relative cell viability for "CC(=O)Nc1nc(C)c(-c2ccc(Cl)c(S(=O)(=O)NCCO)c2)s1" , please?
Data returned: 0.603

Data request: Recorded relative cell viability for "CO[C@H]1CC[C@H](N2C(=O)CNc3ncc(-c4ccc(C(C)(C)O)nc4)nc32)CC1" , please?
Data returned: 0.733

Data request: Recorded relative cell viability for "O=C(O)c1ccc(N2C(=O)/C(=C\c3ccc(-c4ccc([N+](=O)[O-])cc4)o3)C=C2c2ccccc2)cc1" , please?
Data returned: 1.24

Data request: Recorded relative cell viability for "C[C@H](Nc1ncnc2[nH]cnc12)c1cc2ccc(F)cc2nc1-c1ccccn1" , please?
Data returned: 0.59

Data request: Recorded relative cell viability for "NC(=O)Nc1sc(-c2ccc(F)cc2)cc1C(N)=O" , please?
Data returned: 0.87

Data request: Recorded relative cell viability for "CN(c1ccccc1CNc1nc(Nc2ccc3c(c2)CC(=O)N3)ncc1C(F)(F)F)S(C)(=O)=O" , please?
Data returned: 0.723

Data request: Recorded relative cell viability for "COc1ccc(CNC(=O)Nc2ncc([N+](=O)[O-])s2)cc1" , please?
Data returned: 0.45

Data request: Recorded relative cell viability for "CC(C)(C)c1cc(NC(=O)Nc2ccc(-c3cn4c(n3)sc3cc(OCCN5CCOCC5)ccc34)cc2)no1" , please?
Data returned: 0.473
